- Tested on: MCF7
- method.summary: Sono-cytotoxicity against human MCF7 cells assessed as inhibition of cell growth preincubated for 4 hrs followed by ultrasonic sound treatment for 30 sec by MTT assay
- Format: functional, cell-based
Entries and their measured pIC50 follow.
pIC50 here: minus log base 10 of the concentration, concentration in moles per litre.

{"columns": ["compound.structure.string", "assay.system", "pIC50"],
 "data": [
  ["COc1cc(/C=C/c2ccc(N(c3ccc(/C=C/c4cc(OC)cc(OC)c4)cc3)c3ccc(-c4ccc(-c5ccc(N(c6ccc(/C=C/c7cc(OC)cc(OC)c7)cc6)c6ccc(/C=C/c7cc(OC)cc(OC)c7)cc6)cc5)c5nsnc45)cc3)cc2)cc(OC)c1", "MCF7", 5.46],
  ["COc1cc(/C=C/c2ccc(N(c3ccccc3)c3ccc(-c4ccc(-c5ccc(N(c6ccccc6)c6ccc(/C=C/c7cc(OC)cc(OC)c7)cc6)cc5)c5nsnc45)cc3)cc2)cc(OC)c1", "MCF7", 5.80]
]}

Alright, here's another compound for you.
Lookup: pIC50 / MCF7 / COc1cc(/C=C/c2ccc(N(c3ccc(Br)cc3)c3ccc(-c4ccc(-c5cccs5)c5nsnc45)cc3)cc2)cc(OC)c1
5.38

====

- Test system: MCF7
- method.summary: Sono-cytotoxicity against human MCF7 cells assessed as inhibition of cell growth preincubated for 4 hrs followed by ultrasonic sound treatment for 2 mins by MTT assay
- Assay type: functional, cell-based
Entries and their measured pIC50 follow.
pIC50 here: minus log base 10 of the concentration, concentration in moles per litre.

{"columns": ["compound.structure.string", "observed.measurement"],
 "data": [
  ["COc1cc(/C=C/c2ccc(N(c3ccc(/C=C/c4cc(OC)cc(OC)c4)cc3)c3ccc(-c4ccc(-c5ccc(N(c6ccc(/C=C/c7cc(OC)cc(OC)c7)cc6)c6ccc(/C=C/c7cc(OC)cc(OC)c7)cc6)cc5)c5nsnc45)cc3)cc2)cc(OC)c1", 6.08],
  ["COc1cc(/C=C/c2ccc(N(c3ccc(Br)cc3)c3ccc(-c4ccc(-c5cccs5)c5nsnc45)cc3)cc2)cc(OC)c1", 5.70]
]}

Alright, here's another molecule for you.
Any idea what its pIC50 is? The molecule is COc1cc(/C=C/c2ccc(N(c3ccccc3)c3ccc(-c4ccc(-c5ccc(N(c6ccccc6)c6ccc(/C=C/c7cc(OC)cc(OC)c7)cc6)cc5)c5nsnc45)cc3)cc2)cc(OC)c1
6.26

====

- Tested on: MCF7
- method.summary: Cytotoxicity against human MCF7 cells assessed as inhibition of cell growth incubated for 72 hrs by MTT assay
- Format: functional, cell-based
- reported.conditions: MCF7, 72 h
quantity.measured: IC50 (µM)
Express the result in µM but write the number alone.

Any idea what its IC50 is? The compound is COc1cc(/C=C/c2ccc(N(c3ccccc3)c3ccc(-c4ccc(-c5ccc(N(c6ccccc6)c6ccc(/C=C/c7cc(OC)cc(OC)c7)cc6)cc5)c5nsnc45)cc3)cc2)cc(OC)c1
2.4

Any idea what its IC50 is? The compound is COc1cc(/C=C/c2ccc(N(c3ccc(Br)cc3)c3ccc(-c4ccc(-c5cccs5)c5nsnc45)cc3)cc2)cc(OC)c1
9.2

Any idea what its IC50 is? The compound is COc1cc(/C=C/c2ccc(N(c3ccc(/C=C/c4cc(OC)cc(OC)c4)cc3)c3ccc(-c4ccc(-c5ccc(N(c6ccc(/C=C/c7cc(OC)cc(OC)c7)cc6)c6ccc(/C=C/c7cc(OC)cc(OC)c7)cc6)cc5)c5nsnc45)cc3)cc2)cc(OC)c1
3.6
